# Test system: Enterococcus faecalis
# test.protocol: Antimicrobial activity against Enterococcus faecalis ATCC 29212 after 20 hrs by broth microdilution method
# Assay type: functional
# particulars: ATCC 29212, 20 h
recorded.endpoint: MIC (µg/mL)
Could you give me the number in µg/mL? Just the number is fine.

What does the data say about its MIC? Entry: CCc1[nH]c(C(=O)N[C@@H]2CCN(c3nnc([C@H](C)O)s3)C[C@@H]2OC)nc1Cl
0.25

What does the data say about its MIC? Entry: CCc1[nH]c(C(=O)N[C@@H]2CCN(c3nnc(C(C)(C)O)s3)C[C@@H]2OC)nc1Cl
0.25

What does the data say about its MIC? Entry: CCO[C@H]1CN(c2nnc(C(C)O)s2)CC[C@H]1NC(=O)c1nc(Cl)c(CC)[nH]1 (some centres undefined)
0.25

What does the data say about its MIC? Entry: CCc1[nH]c(C(=O)N[C@@H]2CCN(c3nnc([C@@H](C)O)s3)C[C@@H]2OC)nc1Cl
0.25

----------
Kindly state MIC for each of the entries shown.
# System: Haemophilus influenzae
# test.protocol: Antimicrobial activity against Haemophilus influenzae ATCC 49247 after 20 hrs by broth microdilution method
# Assay type: functional
# particulars: ATCC 49247, 20 h
Could you give me the number in µg/mL? Just the number is fine.

Provide value of MIC for this record tested with Haemophilus influenzae: CCc1[nH]c(C(=O)N[C@@H]2CCN(c3nnc([C@@H](C)O)s3)C[C@@H]2OC)nc1Cl
1

Provide value of MIC for this record tested with Haemophilus influenzae: CCO[C@H]1CN(c2nnc(C(C)O)s2)CC[C@H]1NC(=O)c1nc(Cl)c(CC)[nH]1 (some centres undefined)
2

Provide value of MIC for this record tested with Haemophilus influenzae: CCc1[nH]c(C(=O)N[C@@H]2CCN(c3nnc([C@H](C)O)s3)C[C@@H]2OC)nc1Cl
1

Provide value of MIC for this record tested with Haemophilus influenzae: CCc1[nH]c(C(=O)N[C@@H]2CCN(c3nnc(C(C)(C)O)s3)C[C@@H]2OC)nc1Cl
0.5
